# Lookup of reported pIC50 keyed by entry
target: Full-length USP19 (Homo sapiens); construct: Full-length USP19 was purchased from Boston Biochem (E-576); purchased Boston Biochem E-576; assay: USP19 fluorescence polarisation (FP) homogeneous assay with Ubiquitin-Lys-TAMRA substrate; type: biochemical; conditions: 2.5 nM USP19, 30 min pre-incubation, average of at least two duplicate experiments
pIC50: −log10 of the molar value.

Examples from the recorded data:
>>> reported_measurement("O=C(N1CCC(O)(Cn2cnc(-c3ccccc3)cc2=O)C2(CCCC2)C1)N1CCOCC1C1CC1 (centres unmarked)")
"4.30 to 5.30"
>>> reported_measurement("O=C(N1CCC(O)(Cn2cnc(-c3ccccc3)cc2=O)C2(CCCC2)C1)N1CCCC1c1ccncc1 (centres unmarked)")
"5.30 to 6.30"
>>> reported_measurement("O=C(N1CC[C@@](O)(Cn2ccc(-c3ccccc3)cc2=O)C2(CCCC2)C1)N1CCNC[C@H]1c1ccccc1")
"> 6.30"
>>> reported_measurement("CN(C)C(=O)c1cn(CC2(O)CCN(C(=O)N3CCC(C(F)(F)F)C3)CC23CCCC3)c(=O)cc1-c1ccccc1 (centres unmarked)")
"> 6.30"
>>> reported_measurement("O=C(N1CC[C@@](O)(Cn2cnc(N3CCCC(F)(F)C3)cc2=O)C2(CCCC2)C1)N1CCNC[C@H]1c1ccccc1")
"> 6.30"
>>> reported_measurement("C[C@H](CC(F)(F)F)C(=O)N1CCC(O)(Cn2cnc3c(cnn3C3CC3)c2=O)C2(CCCC2)C1 (some centres unmarked)")
"4.30 to 5.30"
>>> reported_measurement("CS(=N)(=O)c1cn(CC2(O)CCN(C(=O)N3CCNC[C@H]3c3ccccc3)CC23CCCC3)c(=O)cc1-c1ccccc1 (some centres unmarked)")
"> 6.30"
>>> reported_measurement("O=C(N1CCC(O)(Cn2cnc(-c3ccccc3)cc2=O)C2(CCC2)C1)N1CCOC[C@H]1c1ccccc1 (some centres unmarked)")
"> 6.30"
>>> reported_measurement("O=C(NCC1(F)CCC1)N1CC[C@@](O)(Cn2cnc(-c3ccccc3)cc2=O)C2(CCCC2)C1")
"4.30 to 5.30"
>>> reported_measurement("O=C(NCc1cccs1)N1CC[C@@](O)(Cn2cnc(-c3ccccc3)cc2=O)C2(CCCC2)C1")
"> 6.30"

Entry O=C(N1CC[C@@](O)(Cn2cnc(N3CC(F)(F)C3)cc2=O)C2(CCCC2)C1)N1CCNC[C@H]1c1ccccc1 : reported pIC50 = ? > 6.30

Entry Cn1nccc1-c1cc(=O)n(C[C@]2(O)CCN(C(=O)N3CCOC[C@H]3c3ccccc3)CC23CCCC3)cn1 : reported pIC50 = ? > 6.30

Entry CN(C)C(=O)c1cn(CC2(O)CCN(C(=O)N(C)Cc3ccccc3)CC23CCCC3)c(=O)cc1-c1ccccc1 (centres unmarked) : reported pIC50 = ? > 6.30

Entry C[C@H](CC1CCCCC1)C(=O)N1CCC(O)(CN2CC(Cc3ccccc3)CC2=O)C2(CCCC2)C1 (some centres unmarked) : reported pIC50 = ? 5.30 to 6.30

---

Biological target: Full-length USP19 (Homo sapiens, UniProt O94966)
Sequence (O94966 1-1318): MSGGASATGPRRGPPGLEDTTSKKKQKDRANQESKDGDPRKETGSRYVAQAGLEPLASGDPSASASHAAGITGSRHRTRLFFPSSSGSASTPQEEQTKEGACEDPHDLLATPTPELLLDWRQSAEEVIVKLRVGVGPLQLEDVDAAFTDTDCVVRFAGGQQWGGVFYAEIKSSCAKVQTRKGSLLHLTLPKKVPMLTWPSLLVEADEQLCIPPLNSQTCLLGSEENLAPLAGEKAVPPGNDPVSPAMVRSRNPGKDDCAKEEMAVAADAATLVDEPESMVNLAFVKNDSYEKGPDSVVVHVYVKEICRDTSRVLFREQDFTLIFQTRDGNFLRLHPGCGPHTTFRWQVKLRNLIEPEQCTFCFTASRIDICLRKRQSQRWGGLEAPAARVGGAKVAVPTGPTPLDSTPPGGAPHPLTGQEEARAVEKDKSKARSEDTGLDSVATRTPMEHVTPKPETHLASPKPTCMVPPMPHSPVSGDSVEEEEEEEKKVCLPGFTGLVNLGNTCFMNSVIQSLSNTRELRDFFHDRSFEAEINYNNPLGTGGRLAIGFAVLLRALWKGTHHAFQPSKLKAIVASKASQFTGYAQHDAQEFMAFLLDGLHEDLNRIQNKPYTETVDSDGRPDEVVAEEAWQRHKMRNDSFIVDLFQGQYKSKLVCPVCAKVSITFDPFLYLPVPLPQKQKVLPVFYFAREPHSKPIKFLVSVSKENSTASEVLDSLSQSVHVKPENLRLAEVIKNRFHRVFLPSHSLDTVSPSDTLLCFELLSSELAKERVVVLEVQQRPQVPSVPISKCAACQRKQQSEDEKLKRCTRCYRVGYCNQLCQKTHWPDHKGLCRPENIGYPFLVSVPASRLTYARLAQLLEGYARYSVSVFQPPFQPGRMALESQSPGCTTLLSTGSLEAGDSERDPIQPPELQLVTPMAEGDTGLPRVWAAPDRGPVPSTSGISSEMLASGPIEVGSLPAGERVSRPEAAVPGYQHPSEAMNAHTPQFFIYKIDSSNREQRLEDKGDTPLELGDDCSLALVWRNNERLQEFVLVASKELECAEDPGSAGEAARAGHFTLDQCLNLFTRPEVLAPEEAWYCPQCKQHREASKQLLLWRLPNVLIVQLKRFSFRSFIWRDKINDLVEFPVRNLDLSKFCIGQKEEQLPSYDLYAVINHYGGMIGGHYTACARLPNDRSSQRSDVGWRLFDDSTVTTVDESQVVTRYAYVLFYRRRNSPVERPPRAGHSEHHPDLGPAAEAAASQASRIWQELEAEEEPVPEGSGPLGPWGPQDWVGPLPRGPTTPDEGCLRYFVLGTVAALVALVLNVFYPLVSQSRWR
pIC50: −log10 of the molar value.
# Lookup of reported pIC50 keyed by entry

>>> reported_measurement("O=C(N[C@H](c1ccccc1)C(F)(F)F)N1CC[C@@](O)(Cn2ccc(-c3ccccc3)cc2=O)C2(CCCC2)C1")
"> 6.30"

Entry O=C(N1CC[C@@](O)(Cn2cnc(-c3ccccc3OC(F)(F)F)cc2=O)C2(CCCC2)C1)N1CCNC[C@H]1c1ccccc1 : reported pIC50 = ? > 6.30

Entry C[C@H](CC1CCCCC1)C(=O)N1CCC(O)(CN2C(=O)COc3cccnc32)C2(CCCC2)C1 (stereo partly shown) : reported pIC50 = ? 5.30 to 6.30

Entry O=C(N1CC[C@@](O)(Cn2ccc(Cl)cc2=O)C2(CCCC2)C1)N1CCNC[C@H]1c1ccccc1 : reported pIC50 = ? > 6.30

Entry O=C(N1CC2CC2C1)N1CCC(O)(Cn2cnc(-c3ccccc3)cc2=O)C2(CCCC2)C1 (stereo not shown) : reported pIC50 = ? 3.60 to 4.30
